- Tested on: Homo sapiens
- PROCEDURE_DETAILS: Vasoconstrictive activity in human at 0.02 to 0.18 ug applied topically by paper-patch test relative to betamethasone 17-valerate
- Type: functional
As shown below, each of these molecules has a reported fold change (FC) value.

SMILES_ENTRY: CCC(=O)O[C@]1(C(C)=O)CC[C@H]2[C@@H]3C[C@H](F)C4=CC(=O)C=C[C@]4(C)[C@@]3(F)[C@@H](O)C[C@@]21C
fold change (FC): 2.5

SMILES_ENTRY: CCCC(=O)O[C@]1(C(C)=O)CC[C@H]2[C@@H]3C[C@H](F)C4=CC(=O)C=C[C@]4(C)[C@@]3(F)[C@@H](O)C[C@@]21C
fold change (FC): 2.5

SMILES_ENTRY: CC(=O)O[C@]1(C(C)=O)CC[C@H]2[C@@H]3C[C@H](F)C4=CC(=O)C=C[C@]4(C)[C@@]3(F)[C@@H](O)C[C@@]21C
fold change (FC): 1.5
